Catalogue of compounds with associated IC50
- TARGET_UNDER_TEST: NaV1.5 (Homo sapiens (Human), UniProt Q14524)
- Sequence (Q14524 other isoform, or with tags, fused parts or gaps): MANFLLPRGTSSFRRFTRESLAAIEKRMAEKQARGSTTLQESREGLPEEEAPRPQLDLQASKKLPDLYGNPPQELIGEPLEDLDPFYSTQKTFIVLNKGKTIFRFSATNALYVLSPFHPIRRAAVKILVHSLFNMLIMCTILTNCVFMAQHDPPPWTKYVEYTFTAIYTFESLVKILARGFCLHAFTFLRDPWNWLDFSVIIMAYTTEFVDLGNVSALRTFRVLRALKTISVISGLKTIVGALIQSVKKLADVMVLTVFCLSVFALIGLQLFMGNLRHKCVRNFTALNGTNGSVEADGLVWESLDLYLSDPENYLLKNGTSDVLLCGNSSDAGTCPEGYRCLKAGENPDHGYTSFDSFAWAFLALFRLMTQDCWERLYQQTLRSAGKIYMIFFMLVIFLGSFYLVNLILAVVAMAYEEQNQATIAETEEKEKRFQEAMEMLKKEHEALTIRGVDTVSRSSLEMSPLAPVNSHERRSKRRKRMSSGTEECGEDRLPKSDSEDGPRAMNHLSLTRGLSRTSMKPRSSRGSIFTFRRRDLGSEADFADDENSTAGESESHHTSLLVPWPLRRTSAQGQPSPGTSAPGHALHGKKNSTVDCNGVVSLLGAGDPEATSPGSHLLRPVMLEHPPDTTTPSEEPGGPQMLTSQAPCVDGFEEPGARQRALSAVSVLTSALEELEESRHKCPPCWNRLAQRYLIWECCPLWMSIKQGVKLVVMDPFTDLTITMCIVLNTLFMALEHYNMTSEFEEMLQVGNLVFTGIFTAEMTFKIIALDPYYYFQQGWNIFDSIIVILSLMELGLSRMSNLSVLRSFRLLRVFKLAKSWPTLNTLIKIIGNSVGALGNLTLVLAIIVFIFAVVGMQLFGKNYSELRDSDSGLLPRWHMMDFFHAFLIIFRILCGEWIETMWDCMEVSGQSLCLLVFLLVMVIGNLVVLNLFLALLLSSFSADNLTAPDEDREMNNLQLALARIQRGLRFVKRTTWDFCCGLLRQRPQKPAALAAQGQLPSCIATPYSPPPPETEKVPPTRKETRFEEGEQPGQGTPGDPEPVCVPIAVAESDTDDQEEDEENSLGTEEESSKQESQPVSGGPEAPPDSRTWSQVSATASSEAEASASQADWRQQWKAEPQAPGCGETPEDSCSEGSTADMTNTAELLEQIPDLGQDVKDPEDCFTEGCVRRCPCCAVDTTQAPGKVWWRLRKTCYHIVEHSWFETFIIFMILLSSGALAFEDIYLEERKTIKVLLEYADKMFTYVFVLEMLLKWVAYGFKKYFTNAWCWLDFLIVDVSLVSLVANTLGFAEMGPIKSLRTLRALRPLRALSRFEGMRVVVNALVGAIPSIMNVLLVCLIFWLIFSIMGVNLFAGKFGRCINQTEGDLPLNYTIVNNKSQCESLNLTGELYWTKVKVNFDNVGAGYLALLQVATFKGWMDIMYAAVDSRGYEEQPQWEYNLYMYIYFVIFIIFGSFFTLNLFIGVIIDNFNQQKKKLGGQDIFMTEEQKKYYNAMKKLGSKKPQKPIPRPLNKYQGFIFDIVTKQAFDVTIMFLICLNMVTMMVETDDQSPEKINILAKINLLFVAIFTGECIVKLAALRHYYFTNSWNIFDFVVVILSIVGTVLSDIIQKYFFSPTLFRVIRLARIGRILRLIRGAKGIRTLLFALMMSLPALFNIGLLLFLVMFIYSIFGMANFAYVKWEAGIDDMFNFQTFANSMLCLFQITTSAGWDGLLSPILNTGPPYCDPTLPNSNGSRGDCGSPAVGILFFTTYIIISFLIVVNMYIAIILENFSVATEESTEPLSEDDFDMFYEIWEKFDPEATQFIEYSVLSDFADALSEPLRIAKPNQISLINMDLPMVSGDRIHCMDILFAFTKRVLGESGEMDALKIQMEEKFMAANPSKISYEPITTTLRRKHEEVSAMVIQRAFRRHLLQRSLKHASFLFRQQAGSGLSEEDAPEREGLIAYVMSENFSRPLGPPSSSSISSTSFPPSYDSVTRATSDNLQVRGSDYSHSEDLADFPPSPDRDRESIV
- ASSAY_PROCEDURE: Sodium Influx Assay (Flux), NaV1.5
- ASSAY_CONTEXT: read-out: Flux NaV1.5 IC50; Trex HEK293 cells, ANG2 dye, inactivated state
Counter-ions that a name gives are not always drawn.
REPORTED_PROPERTY: IC50

INSERT INTO measurements (compound, reported_property, result) VALUES
  ('O=S(=O)(Nc1cscn1)c1c(F)cc(NCc2cccc(F)c2CN2CCC2)cc1F [Example 196, 2,2,2-trifluoroacetate]', 'IC50', '30 µM'),
  ('Cc1c(NCc2c(F)cccc2CN2CC(F)C2)ccc(S(=O)(=O)Nc2cscn2)c1F [Example 130]', 'IC50', '17.7 µM'),
  ('O=S(=O)(Nc1ccon1)c1cc(Cl)c(NCc2c(F)cccc2CN2CCC2)cc1F [Example 301, formate]', 'IC50', '30 µM'),
  ('CCC(Nc1cc(F)c(S(=O)(=O)Nc2nccs2)cc1Cl)c1cccnc1 (stereo not shown) [Example 58]', 'IC50', '7.09 µM');

---

- TARGET_UNDER_TEST: UniProt Q9UQD0
- ASSAY_PROCEDURE: Electrophysiological Assay (EP), patch voltage clamp, NaV1.6;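 note: sodium current recorded at ambient temperature, channels held inactivated then briefly repolarized to −150 mV for 20 ms before a test pulse, control currents in 0.5% DMSO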
- Format: cell-based
- ASSAY_CONTEXT: HEK-293 cells, whole-cell patch clamp
pIC50: −log10 of the molar value.
REPORTED_PROPERTY: pIC50

INSERT INTO results (compound, reported_property, quantitative_result) VALUES
  ('CCC(Nc1ccc(S(=O)(=O)Nc2ncns2)cc1Cl)c1ccccc1 (stereo not drawn) [Example 139]', 'pIC50', 7.42),
  ('C[C@H](Oc1cc(F)c(S(=O)(=O)Nc2nccs2)cc1F)c1ccccc1F [Example 26]', 'pIC50', 6.95),
  ('C[C@H](Oc1cc(F)c(S(=O)(=O)Nc2nccs2)cc1Cl)c1cccc(F)c1 [Example 114]', 'pIC50', 6.59);

---

- TARGET_UNDER_TEST: NaV1.1 (Homo sapiens (Human), UniProt P35498)
- ASSAY_PROCEDURE: Sodium Influx Assay (Flux), NaV1.1;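 note: channels co-expressed with human β1 subunit and held open by modulators, cells exposed to compounds for one hour at room temperature, IC50 from percent inhibition of influx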
- Assay type: cell-based
- ASSAY_CONTEXT: Trex HEK293 cells, ANG2 dye, inactivated state
Where a name gives a salt, the structure may show the parent alone.
Please note: IC50 exactly at 9 µM is F. Only values below 9 µM get T.

INSERT INTO measurements (compound, class) VALUES
  ('CN(C)CC(Nc1cc(F)c(S(=O)(=O)Nc2nccs2)cc1Cl)c1ccccc1 (stereo not shown) [Example 63, 2,2,2-trifluoroacetate]', 'F'),
  ('CC[C@H](Oc1cc(F)c(S(=O)(=O)Nc2cscn2)cc1Cl)c1ccccc1F', 'T'),
  ('C[C@H](Nc1ccc(S(=O)(=O)Nc2cscn2)c(F)c1Cl)c1c(F)cccc1Cl', 'T'),
  ('C[C@H](Nc1c(Cl)cc(S(=O)(=O)Nc2nccs2)cc1Cl)c1ccccc1F', 'T'),
  ('C[C@H](Nc1ccc(S(=O)(=O)Nc2cscn2)cc1Cl)c1ccccc1', 'T'),
  ('C[C@H](Nc1ccc(S(=O)(=O)Nc2cscn2)c(F)c1Cl)c1cc(Cl)ccc1F', 'F'),
  ('O=S(=O)(Nc1ccncn1)c1c(F)cc(NCc2ccccc2CN2CCC2)cc1F [Example 311, formate]', 'F'),
  ('C[C@H](Oc1cc(F)c(S(=O)(=O)Nc2nccs2)cc1Cl)c1cccc(F)c1', 'T'),
  ('O=S(=O)(Nc1cscn1)c1c(F)cc(NCc2c(F)cccc2CN2CCC2)c(Cl)c1F [Example 303, 2,2,2-trifluoroacetate]', 'T'),
  ('O=S(=O)(Nc1nccs1)c1ccc(N[C@H](c2ccccc2)C(F)(F)F)c(Cl)c1 [Example 4, formate]', 'T'),
  ('C[C@H](Sc1cc(F)c(S(=O)(=O)Nc2nccs2)cc1Cl)c1ccccc1', 'T'),
  ('C[C@H](Oc1cc(F)c(S(=O)(=O)Nc2nccs2)cc1Cl)c1ccc(Cl)c(Cl)c1', 'F'),
  ('O=S(=O)(Nc1cscn1)c1ccc(NCc2c(F)ccc(F)c2CN2CCC2)c(F)c1F [Example 213, 2,2,2-trifluoroacetate]', 'F'),
  ('C[C@H](Nc1cc(F)c(S(=O)(=O)Nc2ccncn2)c(F)c1)c1cc(F)ccc1F [Example 208, 2,2,2-trifluoroacetate]', 'F'),
  ('CCC[C@H](Nc1cc(F)c(S(=O)(=O)Nc2nccs2)cc1Cl)c1ccccc1', 'T'),
  ('C[C@H]1CCCN1Cc1cccc(F)c1CNc1cc(F)c(S(=O)(=O)Nc2cscn2)c(F)c1 [Example 158, formate]', 'F'),
  ('O=S(=O)(Nc1cscn1)c1cc(Cl)c(NCc2cc(CCN3CC(F)C3)ccc2F)cc1F [Example 263, formate]', 'T'),
  ('O=S(=O)(Nc1nccs1)c1cc(Cl)c(OCc2cccc3ccncc23)cc1F', 'F'),
  ('CN(C)Cc1cccc(F)c1CNc1cc(F)c(S(=O)(=O)Nc2cscn2)c(F)c1 [Example 165, formate]', 'F'),
  ('O=S(=O)(Nc1cscn1)c1c(F)cc(NCc2c(F)ccc(F)c2CN2CCC2)c(F)c1F [Example 215, 2,2,2-trifluoroacetate]', 'F'),
  ('C[C@H](Nc1cc(F)c(S(=O)(=O)Nc2cscn2)cc1Cl)c1cc(F)cc(F)c1', 'T'),
  ('Cc1cc(S(=O)(=O)Nc2ccon2)c(F)cc1NCc1c(F)cccc1CN1CCC1', 'F'),
  ('CC1CN(Cc2cccc(F)c2CNc2cc(F)c(S(=O)(=O)Nc3cscn3)c(F)c2)C1 [Example 164, formate]', 'F'),
  ('C[C@H](Oc1cc(F)c(S(=O)(=O)Nc2cscn2)cc1Cl)c1c(F)cccc1F', 'F'),
  ('CN(Cc1ccccc1CNc1cc(F)c(S(=O)(=O)Nc2cscn2)c(F)c1)C(C)(C)C [Example 202, 2,2,2-trifluoroacetate]', 'F'),
  ('C[C@H](Nc1cc(F)c(S(=O)(=O)Nc2cscn2)cc1Cl)c1cc(Cl)ccc1F', 'T'),
  ('CN1CCN(Cc2cccc(F)c2CNc2cc(F)c(S(=O)(=O)Nc3cscn3)c(F)c2)CC1 [Example 151, formate]', 'F'),
  ('Cc1cc(NS(=O)(=O)c2cc(Cl)c(N[C@@H](C)c3ccccc3Cl)cc2F)ncn1', 'F'),
  ('Cc1cc(S(=O)(=O)Nc2cccc(F)n2)c(F)cc1NCc1ccccc1CN1CCC1', 'T');

---

Catalogue of compounds with associated IC50
- TARGET_UNDER_TEST: NaV1.5 (Homo sapiens (Human), UniProt Q14524)
- ASSAY_PROCEDURE: Sodium Influx Assay (Flux), NaV1.5
- ASSAY_CONTEXT: read-out: Flux NaV1.5 IC50; Trex HEK293 cells, ANG2 dye, inactivated state
Counter-ions that a name gives are not always drawn.
REPORTED_PROPERTY: IC50 (µM)

INSERT INTO measurements (compound, quantitative_result) VALUES
  ('C[C@@H](O)c1cccc(F)c1CNc1cc(F)c(S(=O)(=O)Nc2cscn2)c(F)c1', 21.6),
  ('O=S(=O)(Nc1cscn1)c1c(F)cc(NCc2c(Cl)cccc2CN2CC3(COC3)C2)cc1F [Example 295, formate]', 30),
  ('O=S(=O)(Nc1cscn1)c1c(F)cc(NCc2c(F)cccc2CN2CCC23COC3)cc1F [Example 157, formate]', 30),
  ('CC[C@@H](Nc1cc(F)c(S(=O)(=O)Nc2nccs2)cc1Cl)c1ccccc1', 6.81);

---

- TARGET_UNDER_TEST: NaV1.6 (Homo sapiens (Human), UniProt Q9UQD0)
- Sequence (Q9UQD0 whole entry): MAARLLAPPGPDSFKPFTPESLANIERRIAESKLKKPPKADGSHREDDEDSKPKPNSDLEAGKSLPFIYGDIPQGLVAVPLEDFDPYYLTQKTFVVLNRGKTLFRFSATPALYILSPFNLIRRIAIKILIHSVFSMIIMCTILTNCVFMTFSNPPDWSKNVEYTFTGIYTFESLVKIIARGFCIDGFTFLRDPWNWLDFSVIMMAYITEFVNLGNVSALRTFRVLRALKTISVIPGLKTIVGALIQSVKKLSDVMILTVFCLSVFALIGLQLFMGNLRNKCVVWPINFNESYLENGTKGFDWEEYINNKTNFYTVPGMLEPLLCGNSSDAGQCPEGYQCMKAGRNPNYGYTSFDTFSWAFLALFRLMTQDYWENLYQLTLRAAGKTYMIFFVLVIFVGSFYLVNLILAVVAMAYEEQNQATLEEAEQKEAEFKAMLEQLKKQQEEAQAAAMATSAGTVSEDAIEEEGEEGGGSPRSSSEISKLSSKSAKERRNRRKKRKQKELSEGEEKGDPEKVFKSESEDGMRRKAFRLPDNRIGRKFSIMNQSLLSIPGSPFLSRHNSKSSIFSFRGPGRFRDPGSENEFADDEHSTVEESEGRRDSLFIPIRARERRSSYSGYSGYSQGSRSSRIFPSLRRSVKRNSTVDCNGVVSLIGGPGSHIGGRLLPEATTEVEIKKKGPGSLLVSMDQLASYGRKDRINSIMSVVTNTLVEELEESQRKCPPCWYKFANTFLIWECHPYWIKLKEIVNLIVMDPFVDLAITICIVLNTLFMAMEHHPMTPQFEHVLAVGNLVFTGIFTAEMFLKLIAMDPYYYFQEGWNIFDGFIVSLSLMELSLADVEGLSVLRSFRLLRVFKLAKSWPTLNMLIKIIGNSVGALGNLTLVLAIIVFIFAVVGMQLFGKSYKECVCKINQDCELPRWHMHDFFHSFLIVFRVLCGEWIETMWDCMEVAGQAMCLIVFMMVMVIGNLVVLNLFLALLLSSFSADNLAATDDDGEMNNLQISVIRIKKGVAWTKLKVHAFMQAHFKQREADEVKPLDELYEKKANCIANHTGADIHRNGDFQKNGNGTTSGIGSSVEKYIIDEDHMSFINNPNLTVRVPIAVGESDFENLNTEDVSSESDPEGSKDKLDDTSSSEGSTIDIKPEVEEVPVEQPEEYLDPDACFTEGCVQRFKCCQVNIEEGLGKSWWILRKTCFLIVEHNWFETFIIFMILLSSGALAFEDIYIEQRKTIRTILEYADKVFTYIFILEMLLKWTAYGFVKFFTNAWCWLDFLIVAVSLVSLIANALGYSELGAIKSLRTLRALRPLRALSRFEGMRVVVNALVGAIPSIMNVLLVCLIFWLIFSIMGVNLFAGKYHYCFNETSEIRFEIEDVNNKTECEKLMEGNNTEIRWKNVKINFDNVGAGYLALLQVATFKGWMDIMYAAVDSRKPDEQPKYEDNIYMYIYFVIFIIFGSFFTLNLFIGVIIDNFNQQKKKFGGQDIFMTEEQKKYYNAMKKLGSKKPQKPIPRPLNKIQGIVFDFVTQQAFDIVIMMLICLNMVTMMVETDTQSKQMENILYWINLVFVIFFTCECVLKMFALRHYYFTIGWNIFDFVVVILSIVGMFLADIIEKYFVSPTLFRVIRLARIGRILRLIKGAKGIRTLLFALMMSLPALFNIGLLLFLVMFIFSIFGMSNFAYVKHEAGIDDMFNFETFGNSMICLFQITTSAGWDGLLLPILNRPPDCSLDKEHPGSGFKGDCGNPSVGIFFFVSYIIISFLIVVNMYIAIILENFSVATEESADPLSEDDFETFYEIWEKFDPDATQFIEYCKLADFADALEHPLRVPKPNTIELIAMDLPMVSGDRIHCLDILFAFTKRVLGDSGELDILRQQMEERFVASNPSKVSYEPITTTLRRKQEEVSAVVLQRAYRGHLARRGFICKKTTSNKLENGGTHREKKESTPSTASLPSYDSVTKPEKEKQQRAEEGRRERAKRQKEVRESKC
- ASSAY_PROCEDURE: Sodium Influx Assay (Flux), NaV1.6;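 note: Tetracycline-induced cells, compounds applied for one hour at room temperature with modulators holding channels open, IC50 from percent inhibition of sodium influx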
- Type: cell-based
- ASSAY_CONTEXT: Trex HEK293 cells, ANG2 dye, inactivated state
pIC50: −log10 of the molar value. Where a name gives a salt, the structure may show the parent alone.
Catalogue of compounds with associated pIC50
REPORTED_PROPERTY: pIC50

INSERT INTO measurements (compound, quantitative_result) VALUES
  ('O=S(=O)(Nc1cscn1)c1cc(Cl)c(NCc2cc(CCN3CC(F)C3)ccc2F)cc1F [Example 263, formate]', 5.99),
  ('CC[C@H](Nc1cc(F)c(S(=O)(=O)Nc2ncc(F)s2)cc1Cl)c1ccccc1 [Example 265]', 6.71),
  ('C[C@H](Nc1cc(F)c(S(=O)(=O)Nc2cscn2)cc1Cl)c1cccc(CN(C)C)c1 [Example 253, formate]', 5.68),
  ('CC[C@H](Nc1ccc(S(=O)(=O)Nc2ncns2)cc1Cl)c1ccccc1 [Example 32]', 7.04),
  ('O=S(=O)(Nc1cscn1)c1cc(Cl)c(NCc2c(F)ccc(F)c2CN2CC3(CCOCC3)C2)cc1F [Example 282, 2,2,2-trifluoroacetate]', 6.39),
  ('O=S(=O)(Nc1cscn1)c1cc(Cl)c(NCc2ccc(F)cc2CN2CCC2)cc1F [Example 132]', 5.29),
  ('O=S(=O)(Nc1nccs1)c1cc(Cl)c(NC2(c3ccccc3)CCC2)cc1F [Example 105]', 6.25),
  ('C[C@H](Nc1cc(F)c(S(=O)(=O)Nc2nccs2)cc1Cl)c1ccc(Cl)cc1 [Example 14]', 5.75),
  ('O=S(=O)(Nc1cscn1)c1c(F)cc(NCc2c(Cl)cccc2CN2CC(F)C2)cc1F [Example 129]', 6.49),
  ('O=S(=O)(Nc1cscn1)c1cc(Cl)c(NCc2c(F)ccc(F)c2CO)cc1F [Example 293]', 6.37),
  ('O=S(=O)(Nc1cscn1)c1c(F)cc(NCc2cccc(F)c2CN2CCC2)c(Cl)c1F [Example 197, 2,2,2-trifluoroacetate]', 7.64),
  ('O=S(=O)(Nc1cscn1)c1cc(Cl)c(NCc2ccccc2CN2CCC2)cc1F [Example 19, 2,2,2-trifluoroacetate]', 6.37),
  ('C[C@H](Nc1cc(F)c(S(=O)(=O)Nc2nccs2)cc1Cl)c1cc(Cl)ccc1F [Example 8]', 6.86),
  ('C[C@H](Nc1cc(F)c(S(=O)(=O)Nc2nccs2)cc1Cl)c1cccc(C(F)(F)F)c1 [Example 3]', 6.17),
  ('C[C@H](Nc1cc(F)c(S(=O)(=O)Nc2cscn2)cc1Cl)c1cc(OC(F)F)ccc1F [Example 281]', 5.97),
  ('CC[C@H](Nc1cc(F)c(S(=O)(=O)Nc2ccncn2)cc1Cl)c1ccccc1Cl [Example 277, 2,2,2-trifluoroacetate]', 6.42),
  ('C[C@H](Nc1cc(F)c(S(=O)(=O)Nc2nccs2)cc1Cl)c1cccc(Br)c1 [Example 7]', 6.42),
  ('CN(C)Cc1ccccc1CNc1cc(F)c(S(=O)(=O)Nc2cscn2)c(F)c1 [Example 271]', 6.35),
  ('COCCN(C)Cc1cccc(F)c1CNc1cc(F)c(S(=O)(=O)Nc2cscn2)c(F)c1 [Example 162, formate]', 6.34),
  ('C[C@H](Nc1cc(F)c(S(=O)(=O)Nc2nccs2)cc1Cl)c1cccc(F)c1 [Example 49]', 6.63),
  ('C[C@H](Nc1cc(F)c(S(=O)(=O)Nc2ncc(F)s2)cc1Cl)c1ccccc1F [Example 266]', 6.93),
  ('O=S(=O)(Nc1nccs1)c1cc(Cl)c(NCc2ccccc2CN2CCC2)cc1F [Example 16, 2,2,2-trifluoroacetate]', 7.54),
  ('CC(Nc1ccc(S(=O)(=O)Nc2nccs2)cc1Cl)c1cnn(C)c1 (stereo not shown) [Example 83]', 4.91),
  ('CCC(Nc1cc(F)c(S(=O)(=O)Nc2nccs2)cc1Cl)c1ccccc1 (stereo not shown) [Example 141]', 6.32),
  ('O=S(=O)(Nc1cscn1)c1c(F)cc(NCc2c(F)cccc2CN2CCC3(CCC3)C2)cc1F [Example 159, formate]', 6.82),
  ('CN(C)C[C@H](Nc1cc(F)c(S(=O)(=O)Nc2nccs2)cc1Cl)c1ccccc1 [Example 65, 2,2,2-trifluoroacetate]', 5.99),
  ('O=S(=O)(Nc1ccccn1)c1c(F)cc(NCc2c(F)cccc2CN2CCC2)cc1F [Example 328]', 5.42),
  ('C[C@H](Nc1cc(F)c(S(=O)(=O)Nc2nccs2)c(F)c1)c1ccccc1F [Example 27]', 7.16),
  ('C[C@H](Oc1cc(F)c(S(=O)(=O)Nc2cscn2)cc1Cl)c1ccccc1Cl [Example 123]', 5.93),
  ('CC[C@H](Oc1cc(F)c(S(=O)(=O)Nc2cscn2)cc1Cl)c1ccccc1F [Example 338]', 5.79),
  ('Cc1cc(S(=O)(=O)Nc2ccon2)c(F)cc1NCc1c(F)cccc1CN1CCC1 [Example 219]', 6.55);
